Test system: HCC-2998 colon
Assay: NCI tumour cell line growth inhibition, 48 h
Lab note: anything with TGI at or over 10 µM counts as Criterion met; the rest go in Criterion not met.

- compound: "COc1cc(/C=C2\\C[C@H]3[C@@H]4CCC5=CC(=O)CC[C@]5(C)[C@H]4CC[C@]3(C)C2=O)cc(OC)c1OC"
  class: "Criterion met"
- compound: "COC(=O)c1cc(=O)nc2cc3cccccc3n12"
  class: "Criterion met"
- compound: "C=C1C(=O)OC2C1CCC(C)C1(O)C=CC(=O)C21C (centres undefined)"
  class: "Criterion met"
- compound: "CCCCCCCCCc1ccc(OCCOCCOCCOCCOCCOCCOCCOCCOCCO)cc1"
  class: "Criterion not met"
- compound: "COc1ccc(C2=NC(=O)NC2c2ccc(OC)cc2)cc1 (centres undefined)"
  class: "Criterion met"
- compound: "CC(=O)C(C(=O)c1ccc(C)cc1)[C@H]1OC(C)(C)O[C@H]1[C@H]1COC(C)(C)O1 (some centres undefined)"
  class: "Criterion met"

Task: Does the compound CC(=O)c1ccc2c(c1)N(CCCN1CCN(CCO)CC1)c1ccccc1S2 have recorded TGI that is 10 µM or more?
Output: Criterion not met

Task: Test whether the compound CCOC(=O)C(=CNc1ccc(N(C2=NCC(C)S2)c2ccc(F)c(Cl)c2)cc1)C(=O)OCC (centres undefined) records TGI of 10 µM or higher.
Output: Criterion met

Task: Exam item: decide whether the reported TGI for CC(=O)O[C@H]1CC[C@@]2(C)C(=CC[C@@H]3[C@@H]2CC[C@]2(C)c4c(n[nH]c4C)C[C@@H]32)C1 is at least 10 µM.
Output: Criterion met

====

System: RPMI-8226 leukemia
Experiment: NCI tumour cell line growth inhibition, 48 h
measured property: TGI (µM)
Entry rule: numbers only, all in µM.

Previously resolved entries follow.
- molecule: "O=C1CCCC/C1=C\\c1ccc([N+](=O)[O-])cc1"
  measured result: 44.3
- molecule: "N#Cc1c2ccc([N+](=O)[O-])cc2c(=O)n2c1[nH]c1ccc(C(F)(F)F)cc12"
  measured result: 13.6

So for O=C(Nc1cccc2[nH]c(C(F)(F)F)nc12)c1cc(Cl)ccc1Cl , the logged TGI turned out to be 6.3

====

Test system: RPMI-8226 leukemia
Experiment: NCI tumour cell line growth inhibition, 48 h
measured property: TGI

- molecule: "CCCN(CCC)c1ccc(C=O)c(Cl)c1"
  measured result: "> 100 µM"
- molecule: "O=C1C(CO)=C[C@H](O)[C@H]2O[C@@H]12"
  measured result: "332 µM"
- molecule: "O=C(CC1(O)C(=O)Nc2ccc(F)cc21)c1ccc(C(=O)NCC2CCC3(CC2)OOC2(CCCCC2)OO3)cc1 (configuration not stated)"
  measured result: "8.55 µM"
- molecule: "C[C@@H](C[C@H]1OC(C)(C)O[C@@H]1C(C)(C)O)[C@H]1CC=C2[C@]3(C)[C@H](O)C[C@H]4C(C)(C)[C@H](O)CC[C@]4(C)[C@H]3CC[C@]21C"
  measured result: "12.8 µM"
- molecule: "CC1(C)CC(=O)c2c(nc3c(ccc4ccccc43)c2-c2ccc(NC(=O)CCC(=O)Nc3ccc(-c4c5c(nc6c4ccc4ccccc46)CC(C)(C)CC5=O)cc3)cc2)C1"
  measured result: "> 100 µM"

Record COc1ccc(-c2c(-c3ccc(OC)cc3)n3c(=O)n(C)c(=O)n23)cc1 , field TGI: > 100 µM

The molecule CCOP(=O)(OCC)/C(C#N)=C/c1ccccn1 showed TGI equal to > 100 µM

The recorded TGI for entry CC1CC2(S(=O)(=O)c3ccccc3)ON1CC2S(=O)(=O)c1ccccc1 (configuration not stated) equals > 100 µM

Measured TGI of O=c1[nH]c(SCc2cccc([N+](=O)[O-])c2)nc2nc[nH]c12 : > 100 µM
